Every entry's value here was drawn from patent US20110118447A1.

subject-of-test: binding partner of C5A (XPA23)
experimental-details: Biacore, K-off
Overview of reported fold difference in affinity vs original across a group of binders:
State just the number; it will be interpreted in fold.

C5A (XPA23) VH F35T (antibody, V domains shown) VH: EVQLLESGGGLVQPGGSLRLSCAASGFTFSKYFMTWVRQAPGKGLEWVSVISPSGGMTRYADSVKGRFTISRDNSKNTLYLQMNSLRAEDTAVYYCARVGYGGNSDYWGQGTLVTVSS VL: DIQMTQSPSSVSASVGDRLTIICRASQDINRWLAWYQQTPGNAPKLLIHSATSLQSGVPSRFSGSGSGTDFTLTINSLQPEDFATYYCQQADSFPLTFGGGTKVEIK | 0.74
C5A (XPA23) VH D106H (antibody, V domains shown) VH: EVQLLESGGGLVQPGGSLRLSCAASGFTFSKYFMFWVRQAPGKGLEWVSVISPSGGMTRYADSVKGRFTISRDNSKNTLYLQMNSLRAEDTAVYYCARVGYGGNSHYWGQGTLVTVSS VL: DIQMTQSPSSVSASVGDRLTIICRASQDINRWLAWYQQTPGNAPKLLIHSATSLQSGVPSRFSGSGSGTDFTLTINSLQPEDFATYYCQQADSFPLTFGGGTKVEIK | 0.02
C5A (XPA23) VH N104S (antibody, V domains shown) VH: EVQLLESGGGLVQPGGSLRLSCAASGFTFSKYFMFWVRQAPGKGLEWVSVISPSGGMTRYADSVKGRFTISRDNSKNTLYLQMNSLRAEDTAVYYCARVGYGGSSDYWGQGTLVTVSS VL: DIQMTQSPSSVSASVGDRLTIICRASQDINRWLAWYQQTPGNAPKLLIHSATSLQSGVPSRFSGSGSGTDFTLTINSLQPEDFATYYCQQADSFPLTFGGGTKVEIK | 1.02

Request: I am curious: what fold difference in affinity vs original value has been reported for C5A (XPA23) VH G56E (antibody, V domains shown) VH: EVQLLESGGGLVQPGGSLRLSCAASGFTFSKYFMFWVRQAPGKGLEWVSVISPSGEMTRYADSVKGRFTISRDNSKNTLYLQMNSLRAEDTAVYYCARVGYGGNSDYWGQGTLVTVSS VL: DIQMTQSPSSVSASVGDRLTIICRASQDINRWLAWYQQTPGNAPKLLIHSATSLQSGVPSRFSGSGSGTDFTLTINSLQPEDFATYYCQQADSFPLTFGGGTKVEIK ?
Response: 1.21

Request: I am curious: what fold difference in affinity vs original value has been reported for C5A (XPA23) VH Y107Q (antibody, V domains shown) VH: EVQLLESGGGLVQPGGSLRLSCAASGFTFSKYFMFWVRQAPGKGLEWVSVISPSGGMTRYADSVKGRFTISRDNSKNTLYLQMNSLRAEDTAVYYCARVGYGGNSDQWGQGTLVTVSS VL: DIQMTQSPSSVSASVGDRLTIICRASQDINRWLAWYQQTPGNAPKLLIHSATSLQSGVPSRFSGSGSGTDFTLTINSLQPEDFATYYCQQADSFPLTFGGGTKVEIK ?
Response: 0.87

Request: I am curious: what fold difference in affinity vs original value has been reported for C5A (XPA23) VH I51N (antibody, V domains shown) VH: EVQLLESGGGLVQPGGSLRLSCAASGFTFSKYFMFWVRQAPGKGLEWVSVNSPSGGMTRYADSVKGRFTISRDNSKNTLYLQMNSLRAEDTAVYYCARVGYGGNSDYWGQGTLVTVSS VL: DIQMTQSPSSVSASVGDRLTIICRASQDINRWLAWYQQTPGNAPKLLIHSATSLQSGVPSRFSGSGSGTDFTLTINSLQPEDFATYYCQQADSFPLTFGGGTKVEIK ?
Response: 0.68

Request: I am curious: what fold difference in affinity vs original value has been reported for C5A (XPA23) VH G55Y (antibody, V domains shown) VH: EVQLLESGGGLVQPGGSLRLSCAASGFTFSKYFMFWVRQAPGKGLEWVSVISPSYGMTRYADSVKGRFTISRDNSKNTLYLQMNSLRAEDTAVYYCARVGYGGNSDYWGQGTLVTVSS VL: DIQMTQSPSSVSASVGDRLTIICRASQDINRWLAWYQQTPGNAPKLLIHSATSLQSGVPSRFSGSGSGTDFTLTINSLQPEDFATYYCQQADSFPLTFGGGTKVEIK ?
Response: 0.08

Request: I am curious: what fold difference in affinity vs original value has been reported for C5A (XPA23) VH Y107D (antibody, V domains shown) VH: EVQLLESGGGLVQPGGSLRLSCAASGFTFSKYFMFWVRQAPGKGLEWVSVISPSGGMTRYADSVKGRFTISRDNSKNTLYLQMNSLRAEDTAVYYCARVGYGGNSDDWGQGTLVTVSS VL: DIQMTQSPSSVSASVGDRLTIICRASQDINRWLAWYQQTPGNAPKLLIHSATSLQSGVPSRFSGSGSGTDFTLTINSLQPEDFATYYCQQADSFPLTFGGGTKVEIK ?
Response: 0.85

Request: I am curious: what fold difference in affinity vs original value has been reported for C5A (XPA23) VH G56D (antibody, V domains shown) VH: EVQLLESGGGLVQPGGSLRLSCAASGFTFSKYFMFWVRQAPGKGLEWVSVISPSGDMTRYADSVKGRFTISRDNSKNTLYLQMNSLRAEDTAVYYCARVGYGGNSDYWGQGTLVTVSS VL: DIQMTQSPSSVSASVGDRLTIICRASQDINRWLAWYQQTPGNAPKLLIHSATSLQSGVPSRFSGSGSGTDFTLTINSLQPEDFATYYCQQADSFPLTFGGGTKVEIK ?
Response: 0.05
